Target Of Assay: human B2 receptor (Homo sapiens)
Construct: human B2 receptor expressed in human fibroblasts W138; endogenous in cells; host or cells: human fibroblasts W138 (WI-38)
Sequence (P30411 1-391): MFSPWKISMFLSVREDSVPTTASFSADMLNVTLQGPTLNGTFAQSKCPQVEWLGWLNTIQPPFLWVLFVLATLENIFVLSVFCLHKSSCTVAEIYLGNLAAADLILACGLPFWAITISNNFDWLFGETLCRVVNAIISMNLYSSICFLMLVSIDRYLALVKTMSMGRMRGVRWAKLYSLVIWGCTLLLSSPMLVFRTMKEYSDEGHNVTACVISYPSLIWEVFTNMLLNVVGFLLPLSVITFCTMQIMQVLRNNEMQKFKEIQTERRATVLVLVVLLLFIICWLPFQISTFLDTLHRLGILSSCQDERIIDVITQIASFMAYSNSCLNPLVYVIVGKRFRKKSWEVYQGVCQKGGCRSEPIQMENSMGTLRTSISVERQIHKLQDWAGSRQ
Procedure Details: binding to the human B2 receptor expressed in human fibroblasts W138
Reported Conditions: human B2 receptor expressed in human fibroblasts W138; read-out: pKi (converted)
Structures can show the parent of a compound that is named as a salt.
Metric Name: Ki (nM)

Cc1cc(C)c2cccc(OCc3c(Cl)ccc(S(=O)(=O)NC4(C(=O)N5CCN(C[C@H](N)CCCCN)CC5)CCCC4)c3Cl)c2n1 [Example 98, trifluoroacetate]
0.631
CC[C@@](C)(NS(=O)(=O)c1ccc(Cl)c(COc2cccc3c(C)cc(C)nc23)c1Cl)C(=O)N1CCN(C(=O)C[C@@H](N)CCCN)CC1
0.398
CNCCCCCNCC1CCN(C(=O)C2(NS(=O)(=O)c3ccc(Cl)c(COc4cccc5c(C)cc(C)nc45)c3Cl)CCCC2)CC1 [Example 106, tris trifluoroacetate]
0.398
CC[C@@](C)(NS(=O)(=O)c1ccc(Cl)c(COc2cccc3c(C)cc(C)nc23)c1Cl)C(=O)N1CCN(C(=O)[C@@H](N)CCCCN(C)C)CC1 [Example 61, tris trifluoroacetate]
0.501

====

Target Of Assay: human B2 receptor (Homo sapiens)
Construct: human B2 receptor expressed in human fibroblasts W138; endogenous in cells; host or cells: human fibroblasts W138 (WI-38)
Procedure Details: binding to the human B2 receptor expressed in human fibroblasts W138
Reported Conditions: human B2 receptor expressed in human fibroblasts W138
Description: In the following the binding values are reported expressed as pKi.
Metric Name: pKi

Cc1cc(C)c2cccc(OCc3c(Cl)ccc(S(=O)(=O)NC4(C(=O)N5CCN(C(=O)C[C@@H](N)CCC[N+](C)(C)C)CC5)CCCC4)c3Cl)c2n1.Cc1cc(C)c2cccc(OCc3c(Cl)ccc(S(=O)(=O)NC4(C(=O)N5CCN(C(=O)C[C@@H](N)CCC[N+](C)(C)C)CC5)CCCC4)c3Cl)c2n1.O=C([O-])C(F)(F)F.O=C([O-])C(F)(F)F
9.7
Cc1cc(C)c2cccc(OCc3c(Cl)ccc(S(=O)(=O)NC4(C(=O)N5CCN(C(=O)[C@@H](N)CCCC[N+](C)(C)C)CC5)CCCC4)c3Cl)c2n1
9.2
Cc1cc(C)c2cccc(OCc3c(Cl)ccc(S(=O)(=O)N[C@H](C)C(C)C(=O)N4CCN(C(=O)C[C@H](CCCNC(=N)N)NC(=N)N)CC4)c3Cl)c2n1.O=C(O)C(F)(F)F.O=C(O)C(F)(F)F.O=C(O)C(F)(F)F (stereo partly drawn)
9.2
Cc1cc(C)c2cccc(OCc3c(Cl)ccc(S(=O)(=O)NC4(C(=O)N5CCN(C(=O)[C@H](CCCCN)[N+](C)(C)C)CC5)CCCC4)c3Cl)c2n1
9.9
Cc1cc(C)c2cccc(OCc3c(Cl)ccc(S(=O)(=O)NC4(C(=O)N5CCN(C(=O)C[C@H](CCCNC(=NC6CCCCC6)NC6CCCCC6)NC(=NC6CCCCC6)NC6CCCCC6)CC5)CCCC4)c3Cl)c2n1.O=C(O)C(F)(F)F.O=C(O)C(F)(F)F.O=C(O)C(F)(F)F
9.2
Cc1cc(C)c2cccc(OCc3c(Cl)ccc(S(=O)(=O)N[C@H](C)C(C)C(=O)N4CCN(C(=O)CN5CCN(CCNC(=N)N)CC5)CC4)c3Cl)c2n1.O=C(O)C(F)(F)F.O=C(O)C(F)(F)F.O=C(O)C(F)(F)F.O=C(O)C(F)(F)F (stereo partly drawn)
9.4
Cc1cc(C)c2cccc(OCc3c(Cl)ccc(S(=O)(=O)NC4(C(=O)N5CCN(C(=O)CCCCC[N+](C)(C)C)CC5)CCCC4)c3Cl)c2n1
9.3
Cc1cc(C)c2cccc(OCc3c(Cl)ccc(S(=O)(=O)NC4(C(=O)N5CCN(C(=O)CCC[N+](C)(C)C)CC5)CCCC4)c3Cl)c2n1
9.4
Cc1cc(C)c2cccc(OCc3c(Cl)ccc(S(=O)(=O)NC(C)(C)C(=O)N4CCN(C(=O)[C@@H](N)CCCCN(C)C)CC4)c3Cl)c2n1
9.2

====

Target Of Assay: human B2 receptor (Homo sapiens)
Construct: human B2 receptor expressed in human fibroblasts W138; endogenous in cells; host or cells: human fibroblasts W138 (WI-38)
Sequence (P30411 1-391): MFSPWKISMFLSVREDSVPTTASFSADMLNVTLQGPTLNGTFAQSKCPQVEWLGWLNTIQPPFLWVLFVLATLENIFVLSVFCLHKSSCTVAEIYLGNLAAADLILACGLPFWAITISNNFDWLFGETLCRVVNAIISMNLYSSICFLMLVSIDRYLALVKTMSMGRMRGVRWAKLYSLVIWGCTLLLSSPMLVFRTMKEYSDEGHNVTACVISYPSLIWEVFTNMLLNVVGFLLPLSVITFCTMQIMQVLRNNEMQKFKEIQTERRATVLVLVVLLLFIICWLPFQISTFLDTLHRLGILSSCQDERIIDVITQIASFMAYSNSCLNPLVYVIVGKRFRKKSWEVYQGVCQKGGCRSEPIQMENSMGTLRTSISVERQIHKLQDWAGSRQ
Procedure Details: binding to the human B2 receptor expressed in human fibroblasts W138
pKi: −log10 of the molar value. Where a name gives a salt, the structure may show the parent alone.
Metric Name: pKi

Cc1cc(C)c2cccc(OCc3c(Cl)ccc(S(=O)(=O)NC(C)(C)C(=O)N4CCN(C(=O)[C@@H](N)CCCNC(=N)N)CC4)c3Cl)c2n1
9.20
Cc1ccc2cccc(OCc3c(Cl)ccc(S(=O)(=O)NC(C)(C)C(=O)N4CCN(C(=O)CC5CCNCC5)CC4)c3Cl)c2n1
9.27
CCN=C(NCC)NCCCC[C@H](N)C(=O)N1CCN(C(=O)C2(NS(=O)(=O)c3ccc(Cl)c(COc4cccc5c(C)cc(C)nc45)c3Cl)CCCC2)CC1
9.40
Cc1ccc2cccc(OCc3c(Cl)ccc(S(=O)(=O)NC(C)(C)C(=O)N4CCN(C(=N)N)CC4)c3Cl)c2n1
9.20

A: Cc1cc(C)c2cccc(OCc3c(Cl)ccc(S(=O)(=O)NC4(C(=O)N5CCN(C(=N)NCCCCCCN)CC5)CCCC4)c3Cl)c2n1 [Example 95, bis trifluoroacetate]
B: CCN=C(NCC)NCCC[C@H](N)C(=O)N1CCN(C(=O)C2(NS(=O)(=O)c3ccc(Cl)c(COc4cccc5c(C)cc(C)nc45)c3Cl)CCCC2)CC1
Inquiry: I would appreciate it if you could say which entry, A or B , has the lower pKi value. Output the label that corresponds to your choice.
Reply text: A
